Method Notes: qHTS for Inhibitors of human tyrosyl-DNA phosphodiesterase 1 (TDP1): qHTS in cells in absence of CPT; also: nearly all actives have a fitted effect of over 55% in size
Condition Set: DT40 Tdp1-/- hTDP1 cells, no CPT, ATP luminescence, 48 h
Among all 420,000 compounds or so, about 64,000 (15%) were called active. Another 27% or so got no clear call; they are omitted. Calls follow the shape of the dose curve; as a rule, active = well fitted inhibition curve with a large enough effect; inconclusive = small, poorly fitted or top-dose-only effect; inactive = flat fitted curve, though single readings scatter. The list is a sample of the results.
Allowed answers: class 1 for active, class 0 for inactive

Q: # lookup: test call for "CCCNC(=O)c1ccccc1NC(=O)CSCc1ccc(OC)cc1"
Ans: class 0

Q: Entry "CN1c2ccc(Cl)cc2-c2nc(SCC(=O)Nc3cc(F)ccc3F)ncc2S1(=O)=O" : call = ?
Ans: class 1

Q: What classification did "Cc1ccc(OC(=O)c2ccccc2C(=O)OCC(F)(F)C(F)F)cc1" end up with in this test?
Ans: class 0

Q: Can you look up the reported call for "Cc1cccc(N=C2NC(=O)/C(=C/c3cn(C)c4ccccc34)S2)c1" for me?
Ans: class 1

Q: Check the results log: what was the call for "CCCC(=O)Nc1ncnc2c1ncn2[C@@H]1O[C@@H]2OP(=O)(O)OC[C@H]2[C@H]1OC(=O)CCC" ?
Ans: class 0

Q: Outcome? "O=C1c2ccccc2C(=O)N1c1ccc(S(=O)(=O)N2CCOCC2)c2ccccc12"
Ans: class 0

Q: So what was the verdict on "O=C(CCN1C(=O)c2ccncc2C1=O)Nc1cc(F)ccc1F" in this test?
Ans: class 0

Q: Please indicate how the test categorized "CCCn1nc(C(=O)NNC(=O)CSCC(=O)Nc2cc(C)on2)c2ccccc2c1=O" .
Ans: class 0

Q: What is the recorded call for this compound in the test? "O=c1cccc(-c2ccc(Br)cc2)o1"
Ans: class 0

Q: Which result was noted for this compound in the test: "CC1(C)C=Cc2c(ccc(C(=O)/C=C/c3ccccc3)c2O)O1"
Ans: class 1

Q: // param item: CCOc1ccc2[nH]c(=O)c(CN(Cc3nnnn3CCc3ccccc3)CC3CCCO3)cc2c1 (configuration not stated) ; yields the recorded call
Ans: class 1

Q: Test call, this compound: "O=S(=O)(Nc1ccccc1)c1ccc(NS(=O)(=O)c2cccs2)cc1"
Ans: class 0

Q: Returns: the outcome recorded for CCCCCCCC[n+]1cccc(C(=O)N2c3c(nc(N)[nH]c3=O)NC(C)C2C)c1 (configuration not stated) in this assay.
Ans: class 0

Q: Answer briefly: the call reported for CC1(C(=O)O)CCN1C(=O)/C=C/c1ccccc1 (configuration not stated) in this assay.
Ans: class 0

Q: So what was the verdict on "CC(C)C(=O)Nc1ccc2oc(=O)ccc2c1" in this test?
Ans: class 0

Q: Record request — test call for "CCOC(=O)c1ccccc1NC(=O)CCc1c(C)nc2c(c1C)c(=O)n(C)c(=O)n2C"
Ans: class 0

Q: What did this assay record as the result for "CCCn1nc(C(=O)NNC(=O)CCOc2ccccc2OCC)c2ccccc2c1=O" ?
Ans: class 0

Q: Hey, what did the test say about "CCc1ccc(-c2nn(-c3ccccc3)cc2CSC(=N)N)cc1" ?
Ans: class 1

Q: Per the assay record, what outcome was assigned to "COc1ccc(CCNC(=O)c2ccco2)cc1" ?
Ans: class 0

Q: Which outcome was entered for the compound "CC(=O)Nc1ccc(NC(=S)NC(=O)/C=C/c2ccccc2)cc1" in this test?
Ans: class 0

Q: Record request — test call for "CCCCn1c(N)c(N(CCC(C)C)C(=O)c2ccc(COc3ccccc3)o2)c(=O)[nH]c1=O"
Ans: class 0

Q: For "Cc1ccc(-n2nc(N)c3c(=O)oc(N(C)C)nc32)cc1" , what call appears in the results of this test?
Ans: class 0
